method_notes: NCI Yeast Anticancer Drug Screen. Data for the rad50 strain (AID 155);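 also: 0% = growth of vehicle-only cultures of the same strain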
condition_description: S. cerevisiae rad50 strain growth inhibition; at 50.0 µM; stronger effect = higher value
The panel holds about 79,000 compounds, 15% with a hit somewhere; the sample as a whole holds those more often.
property_label: growth inhibition (%)
Just the number please, in %, no unit attached.

Example cases with answers are listed next.
- molecule: "CCN(CC)CCN(CCN(CC)CC)c1ccc2ccccc2c1"
  growth inhibition, %: 18.9
- molecule: "CCCNC(=O)N(CCN(C)C)S(=O)(=O)c1ccc(Cl)cc1"
  growth inhibition, %: -38.9
- molecule: "Cc1nnc2ncccn12"
  growth inhibition, %: 31.1
- molecule: "COc1cc(Cc2nccc3cc(OC)c(OC)cc23)c(N=NN(C)C)cc1OC"
  growth inhibition, %: -14.2
- molecule: "Cc1cccc(C)c1NC(=O)N1CCN(C)CC1"
  growth inhibition, %: 1.9
- molecule: "O=C(c1ccccc1)[C@H]1Nc2ccc(Cl)cc2[C@H]2CCC[C@@H]12"
  growth inhibition, %: -2.4
- molecule: "CN1C(=O)CC(c2cccc(C3CC(=O)N(C)C3=O)n2)C1=O (centres undefined)"
  growth inhibition, %: -18.6
- molecule: "CC1=NN(C(=O)Nc2ccccc2)C(=O)C2CCC(=O)N12 (centres undefined)"
  growth inhibition, %: -6.3

Now for the molecule whose growth inhibition we want.
State the recorded growth inhibition for this entry: CCCCCCCCCCCCCCCc1ccc([N+](=O)[O-])c(O)c1
-2.25

* * *

method_notes: NCI Yeast Anticancer Drug Screen. Data for the cln2 rad14 strain (AID 165);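 also: 0% = growth equal to vehicle treated cultures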
condition_description: S. cerevisiae cln2 rad14 strain, at 50.0 µM, stronger effect = higher value
Compounds without any hit were thinned out: in the full panel of roughly 79,000, 15% have a hit.
property_label: growth inhibition (%)
Just the number please, in %, no unit attached.

Example cases with answers are listed next.
- compound: "COC(=O)c1c(-c2ccccc2)cn(C)c1C"
  growth inhibition / %: 5.75
- compound: "CCC1=CC(C(O)CC(C)C)C(C)(Cc2ccc(CC)cn2)NC1c1ccccc1 (configuration not stated)"
  growth inhibition / %: 11.9
- compound: "O=c1[nH]c(=O)n(C2CC(O)C(CO)O2)c2ncncc12 (configuration not stated)"
  growth inhibition / %: 2.15
- compound: "CC1=C2CCOC2=Nc2ccccc2O1"
  growth inhibition / %: -1.8
- compound: "CC1C2CC(C(C3C(=O)C4CC3C(C)(C)C4C)C2=O)C1(C)C (configuration not stated)"
  growth inhibition / %: -1

State the recorded growth inhibition for this entry: ClCc1nnc(-c2ccccc2)o1
-43

State the recorded growth inhibition for this entry: O=S(=O)(CSc1ccccc1)c1ccccc1
-8.35

* * *

method_notes: NCI Yeast Anticancer Drug Screen. Data for the bub3 strain (AID 167)
condition_description: S. cerevisiae bub3 mutant strain, at 50.0 µM, stronger effect = higher value
The panel holds about 79,000 compounds, 15% with a hit somewhere; the sample as a whole holds those more often.
Reported growth inhibition values are given for each entry in this list.
Just the number please, in %, no unit attached.

- compound: "COc1ccc(N2C(=O)C3c4[nH]c5ccccc5c4C4CCC(C(C)(C)C)CC4C3C2=O)c(C)c1 (stereo unspecified)"
  units_label: "%"
  value: -2.45
- compound: "Cc1cc(NS(=O)(=O)c2ccc(NC(=O)c3cccn4c(=O)c5ccccc5nc34)cc2)no1"
  units_label: "%"
  value: -14.7
- compound: "Nc1cccc2c1C(=O)OC2=O"
  units_label: "%"
  value: -3.45
- compound: "CN(C)c1ccc(/C=C(\\NC(=O)c2ccccc2)C(=O)Nc2ccccc2C(=O)NCc2ccccc2)cc1"
  units_label: "%"
  value: 5.95
- compound: "Nc1nc2c(ncn2-c2cccc(Cl)c2)c(=O)[nH]1"
  units_label: "%"
  value: 31.5

State the recorded growth inhibition for this entry: CC(=O)Oc1ccc2c(c1)CC[C@@H]1C2[C@@H](O[N+](=O)[O-])C[C@@]2(C)C1CC[C@@H]2O (stereo partly specified)
31.9

State the recorded growth inhibition for this entry: Cc1ccc(N=C2SC(c3ccc(C)cc3)(c3ccc(C)cc3)c3ccccc32)cc1
-7.15

State the recorded growth inhibition for this entry: CC(=O)c1nc2ccccc2n1CC(=O)c1ccc(Cl)cc1
43.7

State the recorded growth inhibition for this entry: CC(/C=C/c1ccccc1)=N\O
3.45

State the recorded growth inhibition for this entry: CCN(CC)CCC(=O)N1CCc2c([nH]c3ccccc23)C1c1cccnc1 (stereo unspecified)
-0.1

State the recorded growth inhibition for this entry: Cc1ccc(S(=O)(=O)c2ccc(C(=O)O)cc2)cc1
4.05
